Cited source: ChEMBL document CHEMBL1151832

Catalogue of MIC readings, one per entry.
Tested on: Nakaseomyces glabratus
Experiment: Antifungal activity against Candida glabrata clinical isolate by broth microdilution method
Type: functional

// solved cases for MIC follow
Molecule	Study Target	MIC
C[C@@H]1[C@H](O)[C@@H](C)/C=C/C=C/C=C/C=C/C=C/C=C/C=C/[C@H](O[C@@H]2O[C@H](C)[C@@H](O)[C@H](N)[C@@H]2O)C[C@@H]2O[C@](O)(C[C@@H](O)C[C@@H](O)[C@H](O)CC[C@@H](O)C[C@@H](O)CC(=O)O[C@H]1C)C[C@H](O)[C@H]2C(=O)O	Nakaseomyces glabratus	0.25 µg/mL
CO[C@H]([C@H](C)/C=C/N(C)C=O)[C@@H](C)C(=O)CC[C@H](C)[C@H](C[C@@H]1OC(=O)C[C@@H](O)CCC[C@H](O)[C@H](C)[C@H](OC)c2coc(n2)-c2coc(n2)-c2coc(n2)/C=C/CC[C@H]1C)OC	Nakaseomyces glabratus	0.125 µg/mL
CO[C@H]([C@H](C)/C=C/N(C)C=O)[C@@H](C)C(=O)CC[C@H](C)[C@H](C[C@@H]1OC(=O)C[C@@H](OC(N)=O)C[C@H](C)C[C@H](O)[C@H](C)[C@@H](O)c2coc(n2)-c2coc(n2)-c2coc(n2)/C=C/C[C@H](O)[C@H]1C)OC [9-O-DESMETHYL KABIRAMIDE B]	Nakaseomyces glabratus	1 µg/mL
CO[C@H]([C@H](C)/C=C/N(C)C=O)[C@@H](C)C(=O)CC[C@H](C)[C@H](C[C@@H]1OC(=O)C[C@@H](OC(N)=O)C[C@H](C)C[C@H](O)[C@H](C)[C@@H](OC)c2coc(n2)-c2coc(n2)-c2coc(n2)/C=C/C[C@H](OC)[C@H]1C)OC [KABIRAMIDE C]	Nakaseomyces glabratus	0.25 µg/mL

Lookup result for CO[C@H]([C@H](C)/C=C/N(C)C=O)[C@@H](C)C(=O)CC[C@H](C)[C@H](C[C@@H]1OC(=O)C[C@@H](OC(N)=O)C[C@H](C)C[C@H](O)[C@H](C)[C@@H](OC)c2coc(n2)-c2coc(n2)-c2coc(n2)/C=C/C[C@H](O)[C@H]1C)OC [KABIRAMIDE B] ; measured MIC: 0.5 µg/mL

---

Catalogue of log10 MIC readings, one per entry.
Tested on: Cryptococcus neoformans
Experiment: Antifungal activity against Cryptococcus neoformans var. grubii clinical isolate by broth microdilution method
Format: functional
# log10 transformed; quantity=MIC; unit=µg/mL

// solved cases for log10 MIC follow
Molecule	Value Observed
CO[C@H]([C@H](C)/C=C/N(C)C=O)[C@@H](C)C(=O)CC[C@H](C)[C@H](C[C@@H]1OC(=O)C[C@@H](OC(N)=O)C[C@H](C)C[C@H](O)[C@H](C)[C@@H](OC)c2coc(n2)-c2coc(n2)-c2coc(n2)/C=C/C[C@H](O)[C@H]1C)OC [KABIRAMIDE B]	0.00
CO[C@H]([C@H](C)/C=C/N(C)C=O)[C@@H](C)C(=O)CC[C@H](C)[C@H](C[C@@H]1OC(=O)C[C@@H](OC(N)=O)C[C@H](C)C[C@H](O)[C@H](C)[C@@H](OC)c2coc(n2)-c2coc(n2)-c2coc(n2)/C=C/C[C@H](OC)[C@H]1C)OC [KABIRAMIDE C]	-0.90

Lookup result for CO[C@H]([C@H](C)/C=C/N(C)C=O)[C@@H](C)C(=O)CC[C@H](C)[C@H](C[C@@H]1OC(=O)C[C@@H](O)CCC[C@H](O)[C@H](C)[C@H](OC)c2coc(n2)-c2coc(n2)-c2coc(n2)/C=C/CC[C@H]1C)OC ; measured log10 MIC: -0.30

Lookup result for CO[C@H]([C@H](C)/C=C/N(C)C=O)[C@@H](C)C(=O)CC[C@H](C)[C@H](C[C@@H]1OC(=O)C[C@@H](OC(N)=O)C[C@H](C)C[C@H](O)[C@H](C)[C@@H](O)c2coc(n2)-c2coc(n2)-c2coc(n2)/C=C/C[C@H](O)[C@H]1C)OC [9-O-DESMETHYL KABIRAMIDE B] ; measured log10 MIC: 0.30

Lookup result for C[C@@H]1[C@H](O)[C@@H](C)/C=C/C=C/C=C/C=C/C=C/C=C/C=C/[C@H](O[C@@H]2O[C@H](C)[C@@H](O)[C@H](N)[C@@H]2O)C[C@@H]2O[C@](O)(C[C@@H](O)C[C@@H](O)[C@H](O)CC[C@@H](O)C[C@@H](O)CC(=O)O[C@H]1C)C[C@H](O)[C@H]2C(=O)O ; measured log10 MIC: -1.80
